The reported numbers originate from patent US8148370B2.

- experimental_target: mouse Nurr1 receptor (Mus musculus)
- Construct: endogenously expressing the mouse Nurr1 receptor
- Sequence (Q06219 whole entry): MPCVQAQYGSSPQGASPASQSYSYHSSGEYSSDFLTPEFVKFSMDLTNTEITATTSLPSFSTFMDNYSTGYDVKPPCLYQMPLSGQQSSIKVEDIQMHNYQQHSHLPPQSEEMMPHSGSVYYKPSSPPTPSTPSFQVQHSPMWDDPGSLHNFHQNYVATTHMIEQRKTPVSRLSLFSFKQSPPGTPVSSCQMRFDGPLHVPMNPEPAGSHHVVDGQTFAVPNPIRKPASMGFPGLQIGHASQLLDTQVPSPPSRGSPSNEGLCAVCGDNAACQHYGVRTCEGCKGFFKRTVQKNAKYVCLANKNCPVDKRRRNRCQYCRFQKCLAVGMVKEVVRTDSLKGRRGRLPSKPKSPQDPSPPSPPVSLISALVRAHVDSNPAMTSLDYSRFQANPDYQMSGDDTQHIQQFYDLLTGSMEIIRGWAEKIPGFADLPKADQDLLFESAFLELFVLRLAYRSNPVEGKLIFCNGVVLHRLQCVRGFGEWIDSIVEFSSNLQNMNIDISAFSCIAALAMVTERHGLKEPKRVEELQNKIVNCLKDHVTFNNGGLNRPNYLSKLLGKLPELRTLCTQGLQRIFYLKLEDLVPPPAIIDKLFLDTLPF
- experiment_description: Evaluation of the in vitro activity on N2A cells (NBRE-luciferase reporter)
- test_conditions: N2A (Neuro-2A) cells stably transfected with 8NBRE-luciferase; products incubated 24 hours; luminescence
pEC50: −log10 of the molar value.
result_type: pEC50

1. CC(O)c1ccc(F)c(-c2ccc3nc(-c4ccc(Cl)cc4)cn3c2)c1 (single isomer, unassigned; (+)); 10.00
2. O=[N+]([O-])c1ccc(-c2cn3cc(-c4cccc(F)c4CO)ccc3n2)cc1; 6.68
3. OCc1c(F)ccc(-c2ccc3nc(-c4cccc(Br)c4)cn3c2)c1F; 9.00
4. COc1cccc(-c2cn3cc(-c4cc(C(C)(C)O)ccc4F)ccc3n2)c1; 7.60
5. COc1cccc(-c2cn3cc(-c4ccc(CO)c(F)c4)ccc3n2)c1; 7.03
6. OCc1cc(-c2ccc3nc(-c4ccc(Cl)cc4)cn3c2)ccc1F; 8.12
7. OC1CCCc2ccc(-c3ccc4nc(-c5ccc(Cl)cc5)cn4c3)cc21 (stereo not drawn); 7.38
8. OCc1c(F)ccc(-c2ccc3nc(-c4ccc(Cl)cc4)cn3c2)c1F; 9.30
9. COCc1c(F)ccc(-c2ccc3nc(-c4ccc(C)cc4)cn3c2)c1F; 7.13
